System: GFP reporter strain of Mtb (Mtb pMSp12: GFP)
Assay type: cell-based, Mycobacterium tuberculosis
attribute.measured: MIC90 (µM)
Output spec: scalar in µM, unitless text.

c1ccc(Nc2ncnc3[nH]ccc23)cc1 [Compound 1]	62.5
CC(C)OCCCNc1ncnc2[nH]ccc12 [Compound 27]	125
c1ccc(CCCNc2ncnc3[nH]ccc23)cc1 [Compound 22]	14.45

With GFP reporter strain of Mtb (Mtb pMSp12: GFP) as the test system, provide measured MIC90 for this molecule: OCCNCCNc1ncnc2[nH]ccc12 [Compound 26]
125
